targetOfAssay: jack bean urease (Canavalia ensiformis, UniProt P07374)
Construct: purchased Sigma (St. Louis, MO, USA)
Sequence (P07374 whole entry, looked up): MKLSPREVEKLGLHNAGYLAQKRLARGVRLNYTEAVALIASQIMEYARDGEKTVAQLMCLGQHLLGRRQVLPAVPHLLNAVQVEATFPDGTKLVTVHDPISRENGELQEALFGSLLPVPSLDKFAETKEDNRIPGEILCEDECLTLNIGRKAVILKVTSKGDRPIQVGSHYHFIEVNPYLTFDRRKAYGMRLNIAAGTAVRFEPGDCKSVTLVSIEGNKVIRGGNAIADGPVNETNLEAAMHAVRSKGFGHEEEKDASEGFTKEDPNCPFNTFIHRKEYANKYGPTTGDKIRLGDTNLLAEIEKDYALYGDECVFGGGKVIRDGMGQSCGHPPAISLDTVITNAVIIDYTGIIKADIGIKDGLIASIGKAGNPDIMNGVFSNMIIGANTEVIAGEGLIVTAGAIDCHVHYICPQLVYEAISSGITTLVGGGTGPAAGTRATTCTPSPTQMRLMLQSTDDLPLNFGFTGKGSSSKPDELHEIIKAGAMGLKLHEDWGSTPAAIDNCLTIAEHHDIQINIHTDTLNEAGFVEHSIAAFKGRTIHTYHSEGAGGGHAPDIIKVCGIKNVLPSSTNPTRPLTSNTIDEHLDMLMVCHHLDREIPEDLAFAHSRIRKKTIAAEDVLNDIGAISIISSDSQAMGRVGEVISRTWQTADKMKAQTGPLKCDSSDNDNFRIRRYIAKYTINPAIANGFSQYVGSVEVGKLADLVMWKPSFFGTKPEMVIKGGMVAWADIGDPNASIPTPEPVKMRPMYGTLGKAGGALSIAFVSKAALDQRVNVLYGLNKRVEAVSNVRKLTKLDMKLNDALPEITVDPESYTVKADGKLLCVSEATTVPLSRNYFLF
protocolDescription: biochemical
experimentalContext: jack bean urease 5 U/mL, 100 mM urea, pH 8.2, 30 min 37 °C; read-out: Urease Inhibition IC50

| compound | IC50 [µM] |
| --- | --- |
| NC(N)=S [Thio-Urea, Thiourea, reference compound] | 20.7 |
